target: human GPR4 (Homo sapiens, UniProt P46093); construct: expressed in transfected cells; assay: Cell-based assay for human GPR4 activity (pH-induced cAMP formation, HTRF); conditions: HeLa cells stably expressing human GPR4, pH-induced cAMP formation
Sequence (P46093 whole entry): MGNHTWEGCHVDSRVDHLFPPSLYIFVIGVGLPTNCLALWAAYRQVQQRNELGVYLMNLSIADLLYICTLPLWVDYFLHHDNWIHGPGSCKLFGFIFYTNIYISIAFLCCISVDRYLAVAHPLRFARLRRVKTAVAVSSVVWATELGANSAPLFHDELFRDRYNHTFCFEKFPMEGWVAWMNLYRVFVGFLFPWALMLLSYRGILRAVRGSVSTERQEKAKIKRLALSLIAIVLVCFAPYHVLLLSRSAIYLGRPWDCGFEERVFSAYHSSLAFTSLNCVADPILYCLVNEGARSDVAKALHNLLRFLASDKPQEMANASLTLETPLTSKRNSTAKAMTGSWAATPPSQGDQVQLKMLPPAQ
pIC50: −log10 of the molar value. Structures can show the parent of a compound that is named as a salt.
PARAMETER_MEASURED: pIC50

Reference set, count: 3
[[record]]
molecule = "CCc1nc2c(C)cc(C)nc2n1Cc1ccc(CCCN2CCN(C)C[C@@H]2C(C)C)cc1 [Example 24, dihydrochloride]"
number = 6.02

[[record]]
molecule = "CCc1nc2c(C)cc(C)nc2n1Cc1ccc(CCCN2CCN(CC3CCC3)CC2)cc1 [Example 17, dihydrochloride]"
number = 6.75

[[record]]
molecule = "CCc1nc2c(C)cc(C)nc2n1Cc1ccc(/C=C/C(=O)N2CCC(N3CCCCC3)CC2)cc1 [Example 97, hydrochloride]"
number = 6.35


(P) CCc1nc2c(C)cc(C)nc2n1Cc1ccc(/C=C/CN2CCN(CCN3CCOCC3)CC2)cc1 [Example 66, trihydrochloride]
(Q) CCc1nc2c(C)cc(C)nc2n1Cc1ccc(CCCN2CCN(CCOC)CC2)cc1 [Example 20, dihydrochloride]
Field: lower pIC50 | Options: P / Q API: response body contains the label of the selected item.
Q
(Q: 6.02, P: 6.65)

###

target: UniProtKB P46093; experiment: Cell-based assay for human GPR4 activity (pH-induced cAMP formation, HTRF); settings: HeLa cells stably expressing human GPR4, pH-induced cAMP formation
Where a name gives a salt, the structure may show the parent alone.
PARAMETER_MEASURED: IC50 (nM)

// below: answered molecules
[[record]]
molecule = "CCc1nc2c(C)cc(C)nc2n1Cc1ccc(CCCN2CCN(C(C)C)C(CC)C2)cc1 (centres unmarked) [Example 25]"
system_under_test = "UniProtKB P46093"
parameter_measured = "IC50"
number = 364

[[record]]
molecule = "CCc1nc2c(C)cc(C)nc2n1Cc1ccc(/C=C/CN2CCC(N3CCCCC3)CC2)cc1 [Example 33, dihydrochloride]"
system_under_test = "UniProtKB P46093"
parameter_measured = "IC50"
number = 71

[[record]]
molecule = "Cc1cc(C)c2nc(C(F)(F)F)n(Cc3ccc(/C=C/CN4CCC(N5CCCCC5)CC4)cc3)c2n1 [Example 87, dihydrochloride]"
system_under_test = "UniProtKB P46093"
parameter_measured = "IC50"
number = 296


(I) CCc1nc2c(C)cc(C)nc2n1Cc1ccc(/C=C/CN2C[C@H]3C[C@@H]2CN3CC)cc1 [Example 74]
(II) CCc1nc2c(C)cc(C)nc2n1Cc1ccc(CCCN2CCN(C3CCCCC3)CC2)cc1 [Example 19, dihydrochloride]
Returns: the argument ( I or II ) having the larger IC50. State your choice using its label.
I
(I: 323 nM, II: 182 nM)

###

molecular target: human GPR4 (Homo sapiens, UniProt P46093); construct: expressed in transfected cells; assay: Cell-based assay for human GPR4 activity (pH-induced cAMP formation, HTRF); conditions: HeLa cells stably expressing human GPR4, pH-induced cAMP formation
Counter-ions that a name gives are not always drawn.
PARAMETER_MEASURED: IC50 (nM)

[[record]]
compound = "CCc1nc2c(C)cc(C)nc2n1Cc1ccc(/C=C/CN2CCN(CC)C(C)C2)cc1 (stereo not shown) [Example 69, dihydrochloride]"
parameter_measured = "IC50"
number = 201


(1) CCc1nc2c(C)cc(C)nc2n1Cc1ccc(/C=C/CN2CCC(c3c[nH]c4ccccc34)CC2)cc1 [Example 40, hydrochloride]
(2) CCc1nc2c(C)cc(C)nc2n1Cc1ccc(CCCN2CCN(CC)C(C)C2)cc1 (stereo not shown) [Example 22, dihydrochloride]
Could you kindly indicate whether 1 or 2 has the higher IC50 value? Bench note: the answer is the label of the chosen record.
1
(1: 704 nM, 2: 223 nM)

(a) CCc1nc2c(C)cc(C)nc2n1Cc1ccc(C#CCN2CCCC2)cc1
(b) CCc1nc2c(C)cc(C)nc2n1Cc1ccc(NC(=O)CCCCN2CCCCC2)cc1
Response body: label of entry with the larger IC50; valid values a , b . Response format: the label of the selected entry.
a

(P) CCOCCN1CCN(C/C=C/c2ccc(Cn3c(CC)nc4c(C)cc(C)nc43)cc2)CC1
(Q) CCc1nc2c(C)cc(C)nc2n1Cc1ccc(/C=C/CN2CCOC(CNC(C)C)C2)cc1 (stereo not shown)
Quick check, higher IC50 between P and Q ? Answer with the label corresponding to your selection.
P

// provenance: patent US20090291942A1
